Origin of the recorded values: PubChem BioAssay AID1259407

- Test system: CCRIS mutagenicity, Ames/micronucleus/aberration tests
- ASSAY_COMMENT: CCRIS mutagenicity studies
- ASSAY_SETUP: Test System: AMES SALMONELLA TYPHIMURIUM; Strain/Indicator: TA98; Metabolic Activation: NONE; Method: STANDARD PLATE
Calls of active or inactive are those of the source. How the calls were made is not given here.
Hi there, use one of these labels in your reply, thanks! active, inactive

Solved entries (count: 6):
[[record]]
molecule = "Nc1ccc2c(=O)[nH]sc2c1"
assigned_label = "inactive"

[[record]]
molecule = "N=c1c2ncn(C(c3ccccc3)c3ccccc3)c2ncn1O"
assigned_label = "inactive"

[[record]]
molecule = "CCCCOCCOCCOCc1cc2c(cc1CCC)OCO2"
assigned_label = "inactive"

[[record]]
molecule = "O=[N+]([O-])c1ccc(/C=C/c2ccc([N+](=O)[O-])cc2)cc1"
assigned_label = "active"

[[record]]
molecule = "O=C(O)c1cn(-c2ccc(F)cc2)c2cc(N3CCNCC3)c(F)cc2c1=O"
assigned_label = "inactive"

[[record]]
molecule = "CC(C)N=C=NC(C)C"
assigned_label = "inactive"


Q: Recorded call for "[N-]=[N+]=NC[C@H]1O[C@H](O)[C@H](O)[C@@H](O)[C@H]1O" ?
Ans: inactive

Q: Recorded call for "Clc1ccc2cc3ccccc3cc2c1" ?
Ans: inactive

Q: Recorded call for "O=C(/C=C/c1ccc([N+](=O)[O-])o1)N/N=C/c1ccc([N+](=O)[O-])o1" ?
Ans: active

Q: Recorded call for "Cc1nc2c(c3[nH]c4ccccc4c13)C(=O)C(N1CCN(C)CC1)=CC2=O" ?
Ans: inactive

Q: Recorded call for "Nc1cccc2c1C(=O)c1cccc(N)c1C2=O" ?
Ans: inactive

Q: Recorded call for "CON(C)C(=O)Nc1ccc(Br)cc1" ?
Ans: inactive
